target: recombinant novel amylase (Saccharolobus solfataricus); assay: Substrate specificity of the recombinant novel amylase (crude enzyme solution); conditions: 35.2 Units/ml crude enzyme solution; 10 mM substrate (amylopectin and soluble starch 3.0%); 1 Unit = 1 μmol per hour
Sequence (Q55088 whole entry): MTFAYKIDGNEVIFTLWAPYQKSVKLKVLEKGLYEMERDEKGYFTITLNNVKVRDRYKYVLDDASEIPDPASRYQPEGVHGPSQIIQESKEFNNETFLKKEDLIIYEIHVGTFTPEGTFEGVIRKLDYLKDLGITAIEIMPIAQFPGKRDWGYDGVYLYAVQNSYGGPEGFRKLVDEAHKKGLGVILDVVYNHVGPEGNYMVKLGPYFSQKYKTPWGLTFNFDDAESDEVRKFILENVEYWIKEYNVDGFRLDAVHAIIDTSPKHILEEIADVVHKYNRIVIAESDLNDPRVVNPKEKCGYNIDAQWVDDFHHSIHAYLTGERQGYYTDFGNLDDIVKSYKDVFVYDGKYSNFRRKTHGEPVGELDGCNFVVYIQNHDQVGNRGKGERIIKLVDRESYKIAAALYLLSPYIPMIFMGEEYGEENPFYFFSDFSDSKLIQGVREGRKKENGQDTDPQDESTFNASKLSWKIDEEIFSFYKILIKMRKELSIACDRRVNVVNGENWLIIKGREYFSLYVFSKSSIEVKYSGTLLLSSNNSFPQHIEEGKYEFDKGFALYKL
experimental.endpoint: Production rate of mono- and disaccharides

Before answering, review these 2 worked examples.
compound	result
OC[C@H]1O[C@H](OC[C@H]2O[C@H](OC[C@H]3O[C@H](OC[C@H]4OC(O)[C@H](O)[C@@H](O)[C@@H]4O)[C@H](O)[C@@H](O)[C@@H]3O)[C@H](O)[C@@H](O)[C@@H]2O)[C@H](O)[C@@H](O)[C@@H]1O (some centres unmarked)	0 units/ml
OCC1OC(OC2OC(CO)C(OC3OC(CO)C(OC4OC(CO)C(OC5OC(CO)C(O)C(O)C5O)C(O)C4O)C(O)C3O)C(O)C2O)C(O)C(O)C1O [Maltotriosyltrehalose, α-D-maltotetraosyl α-D-glucopyranoside]	35.21 units/ml

// fetch recombinant novel amylase (Saccharolobus solfataricus) Production rate of mono- and disaccharides for OCC1OC(OC2OC(CO)C(OC3OC(CO)C(O)C(O)C3O)C(O)C2O)C(O)C(O)C1O [Glucosyltrehalose, α-D-maltosyl α-D-glucopyranoside]
0.01 units/ml

// fetch recombinant novel amylase (Saccharolobus solfataricus) Production rate of mono- and disaccharides for OC[C@H]1O[C@H](O[C@H]2O[C@H](CO)[C@@H](O)[C@H](O)[C@H]2O)[C@H](O)[C@@H](O)[C@@H]1O
0 units/ml

// fetch recombinant novel amylase (Saccharolobus solfataricus) Production rate of mono- and disaccharides for OC[C@H]1O[C@H](OC[C@H]2OC(O)[C@H](O)[C@@H](O)[C@@H]2O)[C@H](O)[C@@H](O)[C@@H]1O (some centres unmarked)
0 units/ml

// fetch recombinant novel amylase (Saccharolobus solfataricus) Production rate of mono- and disaccharides for OC[C@H]1O[C@H](O[C@H]2[C@H](O)[C@@H](O)[C@@H](O[C@H]3[C@H](O)[C@@H](O)[C@@H](O[C@H]4[C@H](O)[C@@H](O)C(O)O[C@@H]4CO)O[C@@H]3CO)O[C@@H]2CO)[C@H](O)[C@@H](O)[C@@H]1O (some centres unmarked)
0.26 units/ml

// fetch recombinant novel amylase (Saccharolobus solfataricus) Production rate of mono- and disaccharides for OC[C@H]1O[C@H](OC[C@H]2O[C@H](OC[C@H]3OC(O)[C@H](O)[C@@H](O)[C@@H]3O)[C@H](O)[C@@H](O)[C@@H]2O)[C@H](O)[C@@H](O)[C@@H]1O (some centres unmarked)
0 units/ml

// fetch recombinant novel amylase (Saccharolobus solfataricus) Production rate of mono- and disaccharides for OC[C@H]1O[C@H](O[C@H]2[C@H](O)[C@@H](O)[C@@H](O[C@H]3[C@H](O)[C@@H](O)C(O)O[C@@H]3CO)O[C@@H]2CO)[C@H](O)[C@@H](O)[C@@H]1O (mixture of isomers)
0.27 units/ml

// fetch recombinant novel amylase (Saccharolobus solfataricus) Production rate of mono- and disaccharides for OCC1OC(OC2OC(CO)C(OC3OC(CO)C(OC4OC(CO)C(O)C(O)C4O)C(O)C3O)C(O)C2O)C(O)C(O)C1O [Maltosyltrehalose, α-D-maltotriosyl α-D-glucopyranoside]
4.52 units/ml

// fetch recombinant novel amylase (Saccharolobus solfataricus) Production rate of mono- and disaccharides for OC[C@H]1O[C@H](OC[C@H]2O[C@H](OC[C@H]3O[C@H](OC[C@H]4O[C@H](OC[C@H]5OC(O)[C@H](O)[C@@H](O)[C@@H]5O)[C@H](O)[C@@H](O)[C@@H]4O)[C@H](O)[C@@H](O)[C@@H]3O)[C@H](O)[C@@H](O)[C@@H]2O)[C@H](O)[C@@H](O)[C@@H]1O (some centres unmarked)
0 units/ml

// fetch recombinant novel amylase (Saccharolobus solfataricus) Production rate of mono- and disaccharides for OC[C@H]1O[C@H](OC[C@H]2O[C@H](O[C@H]3[C@H](O)[C@@H](O)C(O)O[C@@H]3CO)[C@H](O)[C@@H](O)[C@@H]2O)[C@H](O)[C@@H](O)[C@@H]1O (some centres unmarked)
0 units/ml
